Tested on: HTT mRNA canonical junction (CJ)
Assay: Splicing RT-qPCR assay, decrease of HTT canonical junction (CJ) mRNA
Assay type: cell-based
Conditions: A673 or K562 cells, 24 hours compound treatment, concentration having 50% response in CJ decrease
Description: Compounds described herein were used to modulate RNA transcript abundance in cells. The expression of a target mRNA was measured by detecting the formation of an exon-exon junction in the canonical transcript (CJ). A compound mediated exon-inclusion event was detected by observing an increase in formation of a new junction with an alternative exon (AJ). […] After treatment, the levels of the HTT mRNA targets were determined from each sample of cell lysate by cDNA synthesis followed by qPCR. […]
Counter-ions that a name gives are not always drawn.
Catalogue of AC50 readings, one per entry.

> print(dat)
                                   compound                   target.of.assay    measured.value
1  Cc1cn2cc(NC(=O)c3ccc(N4CCNCC4)c4cc(C)oc34)cc(C)c2n1  HTT mRNA canonical junction (CJ)        > 10000 nM
2  Cc1cn2cc(NC(=O)c3ccc(N4CCNCC4)c4cc(C)oc34)cc(F)c2n1  HTT mRNA canonical junction (CJ)  1000 to 10000 nM
3  CCC1CN(c2ccc(C(=O)Nc3cc(F)c4nc(C)cn4c3)c3nn(C)cc23)CCN1 (centres unmarked)  HTT mRNA canonical junction (CJ)    100 to 1000 nM
4  Cc1cn2cc(NC(=O)c3ccc(C4CCNCC4)c4cn(C)nc34)cc(Cl)c2n1  HTT mRNA canonical junction (CJ)    100 to 1000 nM

# returns recorded AC50 (system: HTT mRNA canonical junction (CJ)) for "Cc1cn2cc(NC(=O)c3ccc(N4CCNCC4)c4cc(C)oc34)cc(Cl)c2n1"
1000 to 10000 nM

# returns recorded AC50 (system: HTT mRNA canonical junction (CJ)) for "Cc1cn2cc(NC(=O)c3ccc(C4CC(C)(C)NC(C)(C)C4)c4cc(C)oc34)cc(F)c2n1"
> 10000 nM

# returns recorded AC50 (system: HTT mRNA canonical junction (CJ)) for "CCn1cc2c(N3CCNCC3)ccc(C(=O)Nc3cc(Cl)c4nc(C)cn4c3)c2n1"
1000 to 10000 nM

# returns recorded AC50 (system: HTT mRNA canonical junction (CJ)) for Cc1cn2cc(NC(=O)c3ccc(N4CCNCC4)c4oc(C)nc34)cc(F)c2n1 [Compound 141, hydrochloride]
< 100 nM

---

Catalogue of AC50 readings, one per entry.
System: HTT mRNA canonical junction (CJ)
Test: Splicing RT-qPCR assay, decrease of HTT canonical junction (CJ) mRNA
Assay type: cell-based
Conditions: A673 or K562 cells, 24 hours compound treatment, concentration having 50% response in CJ decrease

> print(dat)
                                   compound                   target.of.assay    measured.value
1  Cc1cn2cc(NC(=O)c3ccc(N(C)C4CCN(C)CC4)c4cn(C)nc34)cc(F)c2n1  HTT mRNA canonical junction (CJ)    100 to 1000 nM
2  Cc1cn2cc(NC(=O)c3ccc(C4CCNCC4)c4cn(C)nc34)cc(F)c2n1  HTT mRNA canonical junction (CJ)    100 to 1000 nM
3  Cc1cn2cc(NC(=O)c3ccc(N4CCNC(C)(C)C4)c4cn(C)nc34)cc(F)c2n1  HTT mRNA canonical junction (CJ)    100 to 1000 nM
4  Cc1cn2cc(NC(=O)c3ccc(N4CCNCC4)c4cn(C)nc34)cc(F)c2n1  HTT mRNA canonical junction (CJ)    100 to 1000 nM
5  Cc1cn2cc(NC(=O)c3ccc(N4CCNCC4)c4cn(C)nc34)cc(C)c2n1  HTT mRNA canonical junction (CJ)  1000 to 10000 nM
6  Cc1cn2cc(-c3ccc(C(=O)NC4CCNCC4)c4oc(C)cc34)cc(F)c2n1  HTT mRNA canonical junction (CJ)  1000 to 10000 nM
7  Cc1cn2cc(NC(=O)c3ccc(N4CCC(N(C)C)CC4)c4cn(C)nc34)cc(C)c2n1  HTT mRNA canonical junction (CJ)    100 to 1000 nM
8  Cc1cn2cc(NC(=O)c3ccc(N4CC(C)(C)NC(C)(C)C4)c4cn(C)nc34)cc(F)c2n1  HTT mRNA canonical junction (CJ)  1000 to 10000 nM

Form field: reported AC50 of Cc1cn2cc(NC(=O)c3ccc(N4CCN5CCCC5C4)c4cc(C)oc34)cc(F)c2n1 (stereo not shown)
100 to 1000 nM

Form field: reported AC50 of "Cc1cn2nc(-c3ccc(C(=O)NC4CCNCC4)c4oc(C)cc34)cc(C)c2n1"
1000 to 10000 nM

---

Catalogue of AC50 readings, one per entry.
Test system: HTT mRNA canonical junction (CJ)
Test: Splicing RT-qPCR assay, decrease of HTT canonical junction (CJ) mRNA
Assay type: cell-based
Details: A673 or K562 cells, 24 hours compound treatment, concentration having 50% response in CJ decrease

Form field: reported AC50 of Cc1cn2nc(NC(=O)c3ccc(N4CCNCC4)c4cn(C)nc34)cc2c(C)n1 [Compound 247]
> 10000 nM

Form field: reported AC50 of Cc1cn2cc(NC(=O)c3ccc(N4CCNC5(CC5)C4)c4cn(C)nc34)cc(F)c2n1 [Compound 241]
1000 to 10000 nM

Form field: reported AC50 of Cc1cn2cc(-c3ccc(C(=O)NC4CCNCC4)c4nn(C)cc34)cc(F)c2n1 [Compound 280]
1000 to 10000 nM

Form field: reported AC50 of Cc1cn2cc(NC(=O)c3ccc(N4CCC(NC(C)(C)C)CC4)c4cn(C)nc34)cc(F)c2n1 [Compound 259]
1000 to 10000 nM

Form field: reported AC50 of CCNC1CCN(c2ccc(C(=O)Nc3cc(F)c4nc(C)cn4c3)c3oc(C)cc23)CC1 [Compound 196]
1000 to 10000 nM

---

Catalogue of AC50 readings, one per entry.
Test system: HTT mRNA alternative junction (AJ)
Assay: Splicing RT-qPCR assay, increase of HTT alternative junction (AJ) mRNA
Assay type: cell-based
Details: A673 or K562 cells, 24 hours compound treatment, concentration having 50% response in AJ increase
Where a name gives a salt, the structure may show the parent alone.

> print(dat)
                                   molecule  measured.value
1  Cc1cn2nc(NC(=O)c3ccc(C4CCNCC4)c4ccoc34)cc(C)c2n1         > 10 µM
2  Cc1cn2cc(NC(=O)c3ccc(N4CCC(NC(C)(C)C)CC4)c4cc(C)oc34)cc(F)c2n1         > 10 µM
3  Cc1cn2cc(NC(=O)c3ccc(N4CCNCC4)c4cc(C)oc34)ncc2n1      1 to 10 µM

Form field: reported AC50 of "Cn1cc2ccc(NC(=O)c3ccc(N4CCNCC4)c4cn(C)nc34)cc2n1"
> 10 µM

Form field: reported AC50 of "Cc1cn2nc(NC(=O)c3ccc(C4CCNCC4)c4cc(C)oc34)cc(C)c2n1"
1 to 10 µM

Form field: reported AC50 of "Cc1cn2cc(NC(=O)c3ccc(N4CCN(C)CC4)c4cc(C)oc34)cc(F)c2n1"
1 to 10 µM

Form field: reported AC50 of "Cc1cn2cc(-c3ccc(C(=O)NC4CCNCC4)c4oc(C)cc34)cc(F)c2n1"
> 10 µM

Form field: reported AC50 of Cc1cn2cc(NC(=O)c3ccc(C4CCNCC4)c4ccoc34)cc(F)c2n1 [Compound 149, hydrochloride]
1 to 10 µM

---

Test system: HTT mRNA canonical junction (CJ)
Experiment: Splicing RT-qPCR assay, decrease of HTT canonical junction (CJ) mRNA
Format: cell-based
Details: A673 or K562 cells, 24 hours compound treatment, concentration having 50% response in CJ decrease
assay_endpoint: AC50

Examples from the recorded data:
> print(dat)
                                    compound                   target.of.assay  measured.value
 1  CCN1CCC(c2ccc(C(=O)Nc3cc(F)c4nc(C)cn4c3)c3nn(C)cc23)CC1  HTT mRNA canonical junction (CJ)     0.1 to 1 µM
 2  Cc1cn2cc(NC(=O)c3ccc(N4CCNC(C)(C)C4)c4cc(C)oc34)cc(F)c2n1  HTT mRNA canonical junction (CJ)      1 to 10 µM
 3  Cc1cn2cc(NC(=O)c3ccc(C4CC(C)(C)NC(C)(C)C4)c4cn(C)nc34)cc(F)c2n1  HTT mRNA canonical junction (CJ)      1 to 10 µM
 4  Cc1cn2cc(NC(=O)c3ccc(N4CCNCC4)c4cn(C)nc34)cc(Cl)c2n1  HTT mRNA canonical junction (CJ)     0.1 to 1 µM
 5  Cc1cn2cc(NC(=O)c3ccc(N4CCNCC4)c4cc(C)oc34)ncc2n1  HTT mRNA canonical junction (CJ)      1 to 10 µM
 6  Cc1cc2c(N3CCNCC3)ccc(C(=O)Nc3cn[nH]c3)c2o1  HTT mRNA canonical junction (CJ)         > 10 µM
 7  Cc1cn2cc(NC(=O)c3ccc(C4CCNCC4)c4cc(C)oc34)cc(F)c2n1  HTT mRNA canonical junction (CJ)      1 to 10 µM
 8  Cc1cn2cc(NC(=O)c3ccc(N4CC5(CNC5)C4)c4cn(C)nc34)cc(F)c2n1  HTT mRNA canonical junction (CJ)     0.1 to 1 µM
 9  Cc1cn2cc(NC(=O)c3ccc(N4CC5(CNC5)C4)c4cc(C)oc34)cc(F)c2n1  HTT mRNA canonical junction (CJ)     0.1 to 1 µM
10  Cc1cn2cc(NC(=O)c3ccc(N4CCNC(C)C4)c4cn(C)nc34)cc(Cl)c2n1 (stereo not shown)  HTT mRNA canonical junction (CJ)     0.1 to 1 µM

Form field: reported AC50 of Cc1cn2cc(NC(=O)c3ccc(N4CCC(N(C)C)C4)c4cc(C)oc34)cc(F)c2n1 (stereo not shown)
> 10 µM

Form field: reported AC50 of "Cc1cn2cc(NC(=O)c3ccc(N4CCNCC4)c4nc(C)oc34)cc(F)c2n1"
1 to 10 µM
